- assayInfo: self-splicing fitness, log relative to wild type (ln ratio); higher = more splicing; Tetrahymena group I intron in knt gene, E. coli kanamycin selection, DiMSum; sequences stand for … in CUCUCU…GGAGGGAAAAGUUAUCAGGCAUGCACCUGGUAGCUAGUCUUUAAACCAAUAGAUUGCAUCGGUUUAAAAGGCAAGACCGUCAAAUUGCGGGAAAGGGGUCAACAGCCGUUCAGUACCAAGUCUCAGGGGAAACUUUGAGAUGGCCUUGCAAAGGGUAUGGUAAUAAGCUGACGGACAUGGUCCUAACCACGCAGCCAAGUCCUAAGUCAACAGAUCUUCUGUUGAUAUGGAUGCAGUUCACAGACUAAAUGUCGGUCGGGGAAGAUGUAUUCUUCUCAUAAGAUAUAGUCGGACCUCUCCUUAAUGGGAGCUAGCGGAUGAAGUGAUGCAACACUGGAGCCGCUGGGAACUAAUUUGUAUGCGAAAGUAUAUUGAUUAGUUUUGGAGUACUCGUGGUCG;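 further: selection with 25 µg/mL kanamycin versus none on LB agar overnight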
- measurementContext: 37 °C
assayEndpoint: self-splicing fitness (ln)
Output: the number by itself.

### Prompt // returns reported self-splicing fitness (ln) for input "AGAUAGCAAUAUUACGUAUU"
### Response -1.35

### Prompt Fill in: self-splicing fitness (ln) of "GCCCAGCAAUAUUACGUUAA" is ___
### Response -1.01

### Prompt Entry under review: "AUGCAGCAAUAUUACGGAAA" . Reported self-splicing fitness (ln)?
### Response -2.17

### Prompt Please look up its self-splicing fitness (ln): "ACGAAGCAAUAUUACGUUGA"
### Response -1.22

### Prompt Requested field: self-splicing fitness (ln). Item: "UAGCAGCAAUAUUACGGCAG"
### Response 0.546

### Prompt Entry "UCCCAGCAAUAUUACGUCUA" : reported self-splicing fitness (ln) = ?
### Response -2.12

### Prompt What value of self-splicing fitness (ln) has been reported for the following sequence? "CGUGAGCAAUAUUACGGCAA"
### Response -1.43

### Prompt What does the data say about its self-splicing fitness (ln)? Entry: "GGUUAGCAAUAUUACGUAUA"
### Response -1.24

### Prompt Please report the recorded self-splicing fitness (ln) for "CCCAAGCAAUAUUACGUCAU" .
### Response -2.74

### Prompt Which self-splicing fitness (ln) is listed for "AAUAAGCAAUAUUACGUUCC" ?
### Response -1.48

### Prompt Requested field: self-splicing fitness (ln). Item: "AAAUAGCAAUAUUACGCACU"
### Response -0.381

### Prompt I would be grateful if you could share the reported self-splicing fitness (ln) for "CGUAAGCAAUAUUACGGCUU" .
### Response -2.02

### Prompt Returns the measured self-splicing fitness (ln) for the input sequence. Input: "GGAAAGCAAUAUUACGGAUA"
### Response -1.55

### Prompt For the sequence shown here, "CAAUAGCAAUAUUACGGGAA" , give the reported self-splicing fitness (ln).
### Response -1.94

### Prompt Please look up its self-splicing fitness (ln): "GUCUAGCAAUAUUACGGCAU"
### Response 0.88

### Prompt Param item = "CGGCAGCAAUAUUACGGACA" ; retrieve measured self-splicing fitness (ln).
### Response 0.127

----------
- assayInfo: self-splicing fitness, log relative to wild type (ln ratio); higher = more splicing; Tetrahymena group I intron in knt gene, E. coli kanamycin selection, DiMSum; sequences stand for … in CUCUCU…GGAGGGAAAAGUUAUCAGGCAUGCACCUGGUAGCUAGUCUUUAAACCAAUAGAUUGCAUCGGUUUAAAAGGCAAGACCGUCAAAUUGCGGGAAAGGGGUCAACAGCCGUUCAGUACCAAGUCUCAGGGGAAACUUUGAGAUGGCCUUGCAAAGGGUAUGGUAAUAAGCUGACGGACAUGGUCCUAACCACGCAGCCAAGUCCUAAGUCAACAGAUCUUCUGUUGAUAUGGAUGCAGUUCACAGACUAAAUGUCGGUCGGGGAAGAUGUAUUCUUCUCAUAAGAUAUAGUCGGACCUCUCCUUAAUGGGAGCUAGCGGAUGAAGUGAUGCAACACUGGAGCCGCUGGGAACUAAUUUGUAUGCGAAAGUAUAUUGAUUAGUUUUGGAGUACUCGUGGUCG
- measurementContext: 37 °C
What self-splicing fitness (ln) was measured for each of the following?
Reply with the value as a number alone.

### Prompt Look up self-splicing fitness (ln) for this sequence: "GGAUAGCAAUAUUACGCAUC"
### Response -1.63

### Prompt So what does the record say about self-splicing fitness (ln) for "UAAUAGCAAUAUUACGAUCA" ?
### Response 0.387

### Prompt Value lookup for self-splicing fitness (ln); key = "UCAAAGCAAUAUUACGGCUG"
### Response 0.231

### Prompt Find the recorded self-splicing fitness (ln) belonging to "AUUGAGCAAUAUUACGAAAU" and report it.
### Response -2.88

### Prompt Fill in the blank: the reported self-splicing fitness (ln) of "GGGAAGCAAUAUUACGAGGG" is ____.
### Response -2.67

### Prompt I am curious: what self-splicing fitness (ln) value has been reported for "AGCUAGCAAUAUUACGCAUG" ?
### Response -1.06

### Prompt Please give the measured self-splicing fitness (ln) for this sequence: "GACUAGCAAUAUUACGACUC"
### Response 0.55

### Prompt Need self-splicing fitness (ln) of "CUCAAGCAAUAUUACGUAGC" , thanks.
### Response -2.59

### Prompt Consider the sequence "UAAUAGCAAUAUUACGGGGA" and give its measured self-splicing fitness (ln).
### Response -2.65

### Prompt # self-splicing fitness (ln) lookup, item "GGUUAGCAAUAUUACGCUUA"
### Response -0.641

### Prompt Report self-splicing fitness (ln) for "UAGAAGCAAUAUUACGAAAG" please.
### Response -1.26

### Prompt Quick check: self-splicing fitness (ln) of "CGUCAGCAAUAUUACGACAG" ?
### Response 0.297

### Prompt Can you look up the measured self-splicing fitness (ln) of "ACCCAGCAAUAUUACGGCUG" for me?
### Response -2.06

### Prompt Recorded self-splicing fitness (ln) of "UCCGAGCAAUAUUACGAUUA" , please.
### Response -1.72

### Prompt Item under review: "UUAUAGCAAUAUUACGCCUG" . Reported self-splicing fitness (ln)?
### Response -0.933

### Prompt Give the measured self-splicing fitness (ln) of "CUAGAGCAAUAUUACGGUGU" .
### Response -2.92

### Prompt Recorded self-splicing fitness (ln) for "CGCAAGCAAUAUUACGACGG" , please?
### Response 0.452

### Prompt Would you mind telling me what self-splicing fitness (ln) value was observed for "AUGUAGCAAUAUUACGCUUG" ?
### Response -0.51

### Prompt What value of measured self-splicing fitness (ln) is listed for "UGUGAGCAAUAUUACGAUCG" ?
### Response 0.456

### Prompt May I ask what self-splicing fitness (ln) has been recorded for "CUCUAGCAAUAUUACGUAUU" ?
### Response -3.57

### Prompt Give its self-splicing fitness (ln) value. Item: "GGACAGCAAUAUUACGGCUA"
### Response -0.278

### Prompt // self-splicing fitness (ln) lookup, key: "GCCCAGCAAUAUUACGACGC"
### Response -0.0866

### Prompt # get_value(readout='self-splicing fitness (ln)', item= "ACUUAGCAAUAUUACGCCCA" )
### Response -0.528

### Prompt What value of self-splicing fitness (ln) has been reported for the following sequence? "CUCGAGCAAUAUUACGGAAC"
### Response -1.98

### Prompt Entry under review: "ACCGAGCAAUAUUACGAUGG" . Reported self-splicing fitness (ln)?
### Response -1.39

### Prompt For the sequence "GAGUAGCAAUAUUACGAGGA" , what self-splicing fitness (ln) is on record?
### Response -1.81

### Prompt Item "GGAGAGCAAUAUUACGGCGU" has what recorded self-splicing fitness (ln)?
### Response -1.17

### Prompt Form field: reported self-splicing fitness (ln) of "GUCUAGCAAUAUUACGGUGC"
### Response -0.142

### Prompt What value of self-splicing fitness (ln) has been recorded for this entry: "UAUAAGCAAUAUUACGGCGG"
### Response -0.0854

### Prompt Which measured self-splicing fitness (ln) value corresponds to "UGACAGCAAUAUUACGGGUU" ?
### Response -2.79

### Prompt For the sequence "UAAAAGCAAUAUUACGUGAU" , what self-splicing fitness (ln) is on record?
### Response -2.04

### Prompt Query (sequence): "UAGAAGCAAUAUUACGUUUG" ; field requested: self-splicing fitness (ln)
### Response -0.879

### Prompt What measured self-splicing fitness (ln) goes with "CGAGAGCAAUAUUACGCGGA" ?
### Response -1.37

### Prompt What does the data say about its self-splicing fitness (ln)? Entry: "UACAAGCAAUAUUACGCAAA"
### Response -1.51

### Prompt Field request: self-splicing fitness (ln) | item: "CACCAGCAAUAUUACGCAUC"
### Response -3.35

### Prompt Query: self-splicing fitness (ln); subject: "GUCGAGCAAUAUUACGGAUG"
### Response -0.69

### Prompt Data request, read-out self-splicing fitness (ln), for "ACAGAGCAAUAUUACGUAGG"
### Response -1.61

### Prompt If you can, please state the reported self-splicing fitness (ln) value of "AUCCAGCAAUAUUACGGAGC" .
### Response -2.2

### Prompt Return reported self-splicing fitness (ln); argument: "GUACAGCAAUAUUACGAGUG"
### Response -1.25

### Prompt Please give the measured self-splicing fitness (ln) for this sequence: "GAGAAGCAAUAUUACGCAGC"
### Response -1.48

### Prompt For "AAUUAGCAAUAUUACGUUAA" , what is its reported self-splicing fitness (ln)?
### Response -0.801

### Prompt Field request: self-splicing fitness (ln) | item: "GAAAAGCAAUAUUACGUGCU"
### Response -0.978

### Prompt Bench note: what self-splicing fitness (ln) did "GCAGAGCAAUAUUACGGGGU" show?
### Response -3.16

### Prompt Which self-splicing fitness (ln) is reported for this sequence? "GCUUAGCAAUAUUACGGGUG"
### Response -0.144

### Prompt Value lookup for self-splicing fitness (ln); key = "CAGGAGCAAUAUUACGCGGG"
### Response -1.84

### Prompt Looking for the measured self-splicing fitness (ln) of "CCUGAGCAAUAUUACGGCGG" , can you help?
### Response -1.92

### Prompt I am curious: what self-splicing fitness (ln) value has been reported for "GAAAAGCAAUAUUACGUUUA" ?
### Response -0.963

### Prompt What does the record list as self-splicing fitness (ln) for "GACUAGCAAUAUUACGUCCU" ?
### Response 0.446

### Prompt # self-splicing fitness (ln) lookup, item "CCCCAGCAAUAUUACGUUUG"
### Response -2.51

### Prompt Any idea what its self-splicing fitness (ln) is? The sequence is "CUAAAGCAAUAUUACGAAUA"
### Response -1.94

### Prompt # query: self-splicing fitness (ln) of entry "CAUGAGCAAUAUUACGCCCU"
### Response -1.18

### Prompt Looking for the measured self-splicing fitness (ln) of "AUAUAGCAAUAUUACGCAUC" , can you help?
### Response -1.15

### Prompt Using the record for "GGUGAGCAAUAUUACGGCCG" , report its self-splicing fitness (ln).
### Response -2.11

### Prompt Consider the sequence shown here: "AUGCAGCAAUAUUACGCAUC" What is its recorded self-splicing fitness (ln)?
### Response -2.67

### Prompt If you can, please state the reported self-splicing fitness (ln) value of "ACUUAGCAAUAUUACGACUG" .
### Response -0.694

### Prompt Which self-splicing fitness (ln) reading was recorded for the sequence "CUCGAGCAAUAUUACGUGCG" ?
### Response -2.91

### Prompt Entry "GGACAGCAAUAUUACGUUAC" has what self-splicing fitness (ln)?
### Response -2.49

### Prompt What self-splicing fitness (ln) value was documented for this sequence, "UCCCAGCAAUAUUACGCUUG" ?
### Response -2.4

### Prompt Query (sequence): "GGUUAGCAAUAUUACGGCAA" ; field requested: self-splicing fitness (ln)
### Response -0.363

### Prompt Would you mind telling me what self-splicing fitness (ln) value was observed for "GACAAGCAAUAUUACGCCUG" ?
### Response -0.0185

### Prompt Tell me the measured self-splicing fitness (ln) of "CCGCAGCAAUAUUACGGGCC" , please.
### Response -2.34

### Prompt So what does the record say about self-splicing fitness (ln) for "UGCUAGCAAUAUUACGGCGA" ?
### Response -0.302

### Prompt Query (sequence): "ACACAGCAAUAUUACGUAUG" ; field requested: self-splicing fitness (ln)
### Response -1.9

### Prompt Quick check: self-splicing fitness (ln) of "CUUCAGCAAUAUUACGGUGC" ?
### Response -1.56

### Prompt Recorded self-splicing fitness (ln) for "GUACAGCAAUAUUACGCCGG" , please?
### Response -2.45

### Prompt Which value of self-splicing fitness (ln) has been reported for "UUGGAGCAAUAUUACGCCUA" in the records?
### Response -0.365

### Prompt // query self-splicing fitness (ln) value for entry "UAUCAGCAAUAUUACGUAUC"
### Response -0.822

Origin of measurements: the supplement of paper PMC7877785
